inhibition at 280.212 g/ha overview
System: Soybean
Assay Remarks: post-emergence herbicide test
Assay type: in vivo
Reported Conditions: Glycine max, post-emergence, 0.25 lb/A; read-out: % plant inhibition
Source text: Topsoil was placed in aluminum pans having holes in the bottom and compacted to a depth of 1.3 to 1.6 cm from the top of the pan. A predetermined number of seeds of each of several dicotyledonous and monocotyledonous annual plant species and/or vegetative propagules for the perennial plant species were placed on the soil and pressed into the soil surface. The seeds and/or vegetative propagules were covered with soil and leveled. […]
Experimental Endpoint: inhibition at 280.212 g/ha (%)

Molecule | Quantitative Readout
CCOC(=O)C=C(COC(=O)c1cc(-c2nn(C)c(C(F)(F)F)c2C)c(F)cc1Cl)OC | 10
Cc1c(-c2cc(CS)c(Cl)cc2F)nn(C)c1C(F)(F)F | 65
C#CCOC(=O)c1cc(-c2nn(C)c(C(F)(F)F)c2C)c(F)cc1Cl | 10
Cc1c(-c2cc(C(=O)OCc3ccco3)c(Cl)cc2F)nn(C)c1C(F)(F)F | 17
Cc1c(-c2cc(C(=O)OCc3ccccc3)c(Cl)cc2F)nn(C)c1C(F)(F)F | 15
COCC(C)OC(=O)c1cc(-c2nn(C)c(C(F)(F)F)c2C)c(F)cc1Cl (centres unmarked) | 95
C=CCOC(=O)c1cc(-c2nn(C)c(C(F)(F)F)c2C)c(F)cc1Cl | 80
CCC(CC)COC(=O)c1cc(-c2nn(C)c(C(F)(F)F)c2C)c(F)cc1Cl | 15

* * *

Tested on: Common Chickweed
Assay Remarks: post-emergence herbicide test
Format: in vivo
Reported Conditions: post-emergence, 0.1785 lb/A; read-out: % plant inhibition
Experimental Endpoint: inhibition at 200.072 g/ha

Compound | Result
C#CCOc1cc(-c2nn(C)c(C(F)(F)F)c2C)c(F)cc1Cl [Compound 39] | 100%
COc1cc(-c2nn(C)c(C(F)(F)F)c2C)c(F)cc1Cl [Compound 37] | 70%
Cc1c(-c2cc(F)c([N+](=O)[O-])cc2F)nn(C)c1C(F)(F)F [Compound 35] | 0%
Cn1nc(-c2cc(F)ccc2F)c(C=O)c1C(F)(F)F [Compound 34] | 0%
Cc1c(-c2cc(OCC(=O)OC(C)C)c(Cl)cc2F)nn(C)c1C(F)(F)F [Compound 38] | 95%
COc1cc(-c2nn(C)c(C(F)(F)F)c2C)c(F)cc1[N+](=O)[O-] [Compound 36] | 35%
Cc1c(-c2cc(O)c(Cl)cc2F)nn(C)c1C(F)(F)F [Compound 40] | 50%
Cc1c(-c2cc(F)ccc2F)nn(C)c1C(F)(F)F [Compound 1] | 0%

* * *

Test system: Wheat
Assay Remarks: pre-emergence herbicide test
Assay type: in vivo
Reported Conditions: Triticum aestivum, pre-emergence, 0.25 lb/A; read-out: % plant inhibition
Method: Topsoil was placed in an aluminum pan and compacted to a depth of 1.3 to 1.6 cm from the top of the pan. On the top of the soil was placed a predetermined number of seeds of each of several monocotyledonous and dicotyledonous annual plant species and/or vegetative propagules of various perennial plant species. […] Approximately 14 days after seeding and treating, the pans were observed and the results (% inhibition) were recorded. […]

Compound | Output Unit | inhibition at 280.212 g/ha
CC(C)OC(=O)c1cc(-c2nn(C)c(C(F)(F)F)c2C(F)F)c(F)cc1Cl | % | 3
COCc1cc(-c2nn(C)c(C(F)(F)F)c2C)c(F)cc1Cl | % | 0
Cc1cc(-c2nn(C)c(C(F)(F)F)c2C)c(O)cc1Cl | % | 0
COCCOC(=O)c1cc(-c2nn(C)c(C(F)(F)F)c2C)c(F)cc1Cl | % | 5
CSCc1cc(-c2nn(C)c(C(F)(F)F)c2C)c(F)cc1Cl | % | 0
Cc1c(-c2cc(C(=O)OCc3ccco3)c(Cl)cc2F)nn(C)c1C(F)(F)F | % | 0
Cc1c(-c2cc(C(=O)OCCC(C)C)c(Cl)cc2F)nn(C)c1C(F)(F)F | % | 0
Cc1c(-c2cc(C(=O)OCC(=O)OC(C)C)c(Cl)cc2F)nn(C)c1C(F)(F)F | % | 0
CCOC(=O)C=C(COC(=O)c1cc(-c2nn(C)c(C(F)(F)F)c2C)c(F)cc1Cl)OC | % | 0
COC(=O)c1cc(-c2nn(C)c(C(F)(F)F)c2C)c(F)cc1Cl | % | 0
Cc1c(-c2cc(C(N)=O)c(Cl)cc2F)nn(C)c1C(F)(F)F | % | 5
COC(=O)CSCc1cc(-c2nn(C)c(C(F)(F)F)c2C)c(F)cc1Cl | % | 0
CCOC(=O)c1cc(-c2nn(C)c(C(F)(F)F)c2C)c(F)cc1Cl | % | 0
Cc1c(-c2cc(CS(C)(=O)=O)c(Cl)cc2F)nn(C)c1C(F)(F)F | % | 0
Cc1c(-c2cc(CBr)c(Cl)cc2F)nn(C)c1C(F)(F)F | % | 0
CCOC(=O)C(C)OC(=O)c1cc(-c2nn(C)c(C(F)(F)F)c2C)c(F)cc1Cl (stereo not shown) | % | 0
Cn1nc(-c2cc(C(=O)O)c(Cl)cc2F)c(C=O)c1C(F)(F)F | % | 0
Cc1c(-c2cc(C(=O)OCSC#N)c(Cl)cc2F)nn(C)c1C(F)(F)F | % | 0
Cc1c(-c2cc(C(=O)OCC3CNCCO3)c(Cl)cc2F)nn(C)c1C(F)(F)F (stereo not shown) | % | 0
CC(C)OC(=O)c1cc(-c2nn(C)c(C(F)(F)F)c2CF)c(F)cc1Cl | % | 0
C#CCOC(=O)c1cc(-c2nn(C)c(C(F)(F)F)c2C)c(F)cc1Cl | % | 0
CCC(CC)COC(=O)c1cc(-c2nn(C)c(C(F)(F)F)c2C)c(F)cc1Cl | % | 0
Cc1cc(-c2nn(C)c(C(F)(F)F)c2C)c(F)cc1Cl | % | 0
CC(=O)CCCOC(=O)c1cc(-c2nn(C)c(C(F)(F)F)c2C)c(F)cc1Cl | % | 0
Cc1c(-c2cc(C(=O)O)c(Cl)cc2F)nn(C)c1C(F)(F)F | % | 7
CCOC(=O)CCCOC(=O)c1cc(-c2nn(C)c(C(F)(F)F)c2C)c(F)cc1Cl | % | 7
C=CCOC(=O)c1cc(-c2nn(C)c(C(F)(F)F)c2C)c(F)cc1Cl | % | 5
CCOC(=O)COC(=O)c1cc(-c2nn(C)c(C(F)(F)F)c2C)c(F)cc1Cl | % | 0
Cc1c(-c2cc(CSCC(C)C)c(Cl)cc2F)nn(C)c1C(F)(F)F | % | 0
Cc1c(-c2cc(C(=O)OC3CCOC3)c(Cl)cc2F)nn(C)c1C(F)(F)F (stereo not shown) | % | 0
Cc1c(-c2cc(CO)c(Cl)cc2F)nn(C)c1C(F)(F)F | % | 0
Cc1c(-c2cc(C(=O)OCC(C)C)c(Cl)cc2F)nn(C)c1C(F)(F)F | % | 0
Cc1c(-c2cc(CS)c(Cl)cc2F)nn(C)c1C(F)(F)F | % | 0
CCCOC(=O)c1cc(-c2nn(C)c(C(F)(F)F)c2C)c(F)cc1Cl | % | 0
CC(C)OC(=O)c1cc(-c2nn(C)c(C(F)(F)F)c2CO)c(F)cc1Cl | % | 2
CC(C)OC(=O)c1cc(-c2nn(C)c(C(F)(F)F)c2C=O)c(F)cc1Cl | % | 5
Cc1c(-c2cc(C(=O)NC(C)C)c(Cl)cc2F)nn(C)c1C(F)(F)F | % | 6

* * *

Test system: Cocklebur
Assay Remarks: pre-emergence herbicide test
Type: in vivo
Reported Conditions: Xanthium strumarium, pre-emergence, 0.25 lb/A; read-out: % plant inhibition
Procedure: Topsoil was placed in an aluminum pan and compacted to a depth of 1.3 to 1.6 cm from the top of the pan. On the top of the soil was placed a predetermined number of seeds of each of several monocotyledonous and dicotyledonous annual plant species and/or vegetative propagules of various perennial plant species. […] Approximately 14 days after seeding and treating, the pans were observed and the results (% inhibition) were recorded. […]
Class 1 (yes): inhibition at 280.212 g/ha at least 20%. Class 0 (no): inhibition at 280.212 g/ha below 20%.

Compound | Label Value
Cc1c(-c2ccc(Cl)cc2)nn(C)c1C(F)(F)F | 0 (no)
COCC(C)OC(=O)c1cc(-c2nn(C)c(C(F)(F)F)c2C)c(F)cc1Cl (centres unmarked) | 1 (yes)
Cc1c(-c2cc(C(=O)OCc3ccco3)c(Cl)cc2F)nn(C)c1C(F)(F)F | 0 (no)
CC(C)OC(=O)c1cc(-c2nn(C)c(C(F)(F)F)c2CF)c(F)cc1Cl | 1 (yes)
Cc1c(-c2cc(CSCC(C)C)c(Cl)cc2F)nn(C)c1C(F)(F)F | 1 (yes)
CCOC(=O)c1cc(-c2nn(C)c(C(F)(F)F)c2C)c(F)cc1Cl | 1 (yes)
CCCCCCCCCCCCOC(=O)c1cc(-c2nn(C)c(C(F)(F)F)c2C)c(F)cc1Cl | 0 (no)
